System: Rattus norvegicus
test.protocol: Neuroprotective activity against ACR-intoxicated Sprague-Dawley rat assessed as increase in Gpx level in brain at 50 mg/kg, ip administered 10 mins prior to ACR injection 3 days per week for 3 weeks […] relative to control
Type: functional
condition.label: route intraperitoneal
Reported Activity values for a set of compounds
Please give a number only; it is taken to be in %.

Consider the worked cases shown below.
- compound: "CCOC(=O)c1c(N)cnc(Cc2c[nH]c3ccccc23)c1Nc1ccccc1"
  subject.of.test: "Rattus norvegicus"
  measure.unit: "%"
  Activity: 23
- compound: "O=C(Cc1nnn[nH]1)NC(Cc1c[nH]c2ccccc12)C(=O)O (stereo not given)"
  subject.of.test: "Rattus norvegicus"
  measure.unit: "%"
  Activity: 50

Which value of Activity has been reported for C=NC(Cc1c[nH]c2ccccc12)C(=O)C1C(N)=NNC1N (stereo not given) in the records? 25

Please give the result for C=NC(Cc1c[nH]c2ccccc12)C(=O)C1C(N)=NC(=N)N=C1N (stereo not given) too. 1

Please give the result for `N[C@@H](Cc1c[nH]c2ccccc12)C(=O)O` too. 38

* * *

System: Rattus norvegicus
test.protocol: Neuroprotective activity against ACR-intoxicated Sprague-Dawley rat assessed as increase in dopamine level in brain at 50 mg/kg, ip administered 10 mins prior to ACR injection 3 days per week for 3 weeks by spectrofluorimetrically relative to control
Assay type: functional
condition.label: route intraperitoneal
Reported Activity values for a set of molecules
Please give a number only; it is taken to be in %.

Consider the worked cases shown below.
- molecule: "CCOC(=O)c1c(N)cnc(Cc2c[nH]c3ccccc23)c1Nc1ccccc1"
  measured.metric: "Activity"
  measure.unit: "%"
  reported: 9
- molecule: "C=NC(Cc1c[nH]c2ccccc12)C(=O)C1C(N)=NNC1N (centres undefined)"
  measured.metric: "Activity"
  measure.unit: "%"
  reported: 15
- molecule: "O=C(Cc1nnn[nH]1)NC(Cc1c[nH]c2ccccc12)C(=O)O (centres undefined)"
  measured.metric: "Activity"
  measure.unit: "%"
  reported: 29

Checklist item: Activity tested on Rattus norvegicus, entry `N[C@@H](Cc1c[nH]c2ccccc12)C(=O)O` , value? 21

Recorded values, source ChEMBL document CHEMBL1773027.
